- experimental.details: AP1 Signaling Pathway (AID 357);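 further: ME-180 reporter cells stimulated with EGF at its EC50 level; on the % scale 0 is the no-effect control and ±100 the full control effect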
- conditions: ME-180 (cervical carcinoma) AP-1-bla reporter, EGF-induced, beta-lactamase ratio, 5 h; at 17.2 µM (top of the series) unless noted
Records with an inconclusive call do not appear. Activity calls are given as the source filed them. The call rests on the fitted dose curve; in most records, active means well fitted curve in either direction with a large enough effect (not every such curve was filed as active); inconclusive means small, poorly fitted or top-dose-only effect, or another doubt; inactive means flat fitted curve, though single readings scatter.
# activity change, negative = inhibition per record follows

Example cases with answers are listed next.
>  <molecule>
O=C(C(c1ccccc1)N1CCOCC1)N1CCOCC1 (stereo not drawn)

>  <result.value>
27.9% (inactive)

$$$$
>  <molecule>
CCC12CN3CC(CC)(CN(C1)C3c1c(O)ccc3ccccc13)C2=O (stereo not drawn)

>  <result.value>
2.68% (inactive)

$$$$
>  <molecule>
Cn1ncc2nc[nH]c(=O)c21

>  <result.value>
0.993% (inactive)

$$$$
>  <molecule>
Cc1cc(N2CCCCC2)nc2ccc(Cc3ccc4nc(N5CCCCC5)cc(C)c4c3)cc12

>  <result.value>
-0.0465% [at 7.69 µM] (inactive)

$$$$
>  <molecule>
CC(C)c1nc(N2CCOCC2)c(C#N)c2c1COC(C)(C)C2

>  <result.value>
-19.1% (inactive)

$$$$
>  <molecule>
CCOC(=O)c1c(C)cccc1OCC(N)=O

>  <result.value>
-9.84% (inactive)

$$$$

Next up:
Please report the measured activity change, negative = inhibition for Cc1ccc(/C(O)=C2/C(=O)C(=O)N(Cc3ccco3)C2c2cccs2)cc1 (stereo not drawn)
2.29% (inactive)
